Taken from paper PMC7717620.

Tested on: human cardiomyocytes
Method Summary: recording of human cardiomyocyte beating patterns
Type: cell-based
Setup Conditions: 50 μM, 12 h
Measure Name: Beating rate of human cardiomyocytes (beats/minute)
I only need the number, in beats/minute, no unit after it.

Molecule: CC(C)OC(=O)[C@H](C)N[P@](=O)(OC[C@H]1O[C@@H](n2ccc(=O)[nH]c2=O)[C@](C)(F)[C@@H]1O)Oc1ccccc1
Beating rate of human cardiomyocytes [beats/minute]: 33.0

Molecule: COc1nc(N)nc2c1ncn2[C@@H]1O[C@H](COP(=O)(N[C@@H](C)C(=O)OCC(C)(C)C)Oc2cccc3ccccc23)[C@@H](O)[C@@]1(C)O (stereo partly shown)
Beating rate of human cardiomyocytes [beats/minute]: 32.0

Molecule: CC(C)(CO)C(=O)SCCOP(=O)(NCc1ccccc1)OC[C@H]1O[C@@H](n2cnc3c(=O)[nH]c(N)nc32)[C@](C)(O)[C@@H]1O (mixture of isomers)
Beating rate of human cardiomyocytes [beats/minute]: 34.5

Then there is this molecule:
stdin: Dear colleague, I am looking for the recorded Beating rate of human cardiomyocytes of the following molecule: CC(C)OC(=O)CCc1ccccc1OP(=O)(N[C@@H](C)C(=O)OC(C)C)OC[C@H]1O[C@@H](n2cnc3c(N)nc(N)nc32)[C@](C)(O)[C@@H]1O (stereo partly shown)
stdout: 21.0

---

Test system: human cardiomyocytes
Method Summary: recording of human cardiomyocyte beating patterns
Type: cell-based
Setup Conditions: 10 μM, 12 h
Measure Name: Beating rate of human cardiomyocytes
In your response, put the unit directly after the numeric value.

Molecule: CC(C)(CO)C(=O)SCCOP(=O)(NCc1ccccc1)OC[C@H]1O[C@@H](n2cnc3c(=O)[nH]c(N)nc32)[C@](C)(O)[C@@H]1O (mixture of isomers) [IDX-184]
Beating rate of human cardiomyocytes: 34.0 ± 1.4 beats/minute
--
Molecule: CC(C)OC(=O)[C@H](C)N[P@](=O)(OC[C@H]1O[C@@H](n2ccc(=O)[nH]c2=O)[C@](C)(F)[C@@H]1O)Oc1ccccc1 [Sofosbuvir, sofosbuvir]
Beating rate of human cardiomyocytes: 33.5 ± 0.7 beats/minute
--
Molecule: COc1nc(N)nc2c1ncn2[C@@H]1O[C@H](COP(=O)(N[C@@H](C)C(=O)OCC(C)(C)C)Oc2cccc3ccccc23)[C@@H](O)[C@@]1(C)O (stereo partly shown) [BMS-986094]
Beating rate of human cardiomyocytes: 36.0 ± 0 beats/minute

Then there is this molecule:
stdin: Reported Beating rate of human cardiomyocytes for human cardiomyocytes, given CC(C)OC(=O)CCc1ccccc1OP(=O)(N[C@@H](C)C(=O)OC(C)C)OC[C@H]1O[C@@H](n2cnc3c(N)nc(N)nc32)[C@](C)(O)[C@@H]1O (stereo partly shown) [DAPN-PD] ?
stdout: 25.5 ± 0.7 beats/minute

---

Tested on: human cardiomyocytes
Method Summary: recording of human cardiomyocyte beating patterns
Format: cell-based
Setup Conditions: 2 μM, 4 h
Measure Name: Beating rate of human cardiomyocytes

// solved cases for Beating rate of human cardiomyocytes follow
Compound: COc1nc(N)nc2c1ncn2[C@@H]1O[C@H](COP(=O)(N[C@@H](C)C(=O)OCC(C)(C)C)Oc2cccc3ccccc23)[C@@H](O)[C@@]1(C)O (stereo partly shown)
Beating rate of human cardiomyocytes: 30.5 ± 0.7 beats/minute
//
Compound: CC(C)(CO)C(=O)SCCOP(=O)(NCc1ccccc1)OC[C@H]1O[C@@H](n2cnc3c(=O)[nH]c(N)nc32)[C@](C)(O)[C@@H]1O (mixture of isomers)
Beating rate of human cardiomyocytes: 31.5 ± 0.7 beats/minute
//
Compound: CC(C)OC(=O)CCc1ccccc1OP(=O)(N[C@@H](C)C(=O)OC(C)C)OC[C@H]1O[C@@H](n2cnc3c(N)nc(N)nc32)[C@](C)(O)[C@@H]1O (stereo partly shown)
Beating rate of human cardiomyocytes: 34.0 ± 0 beats/minute

Then there is this compound:
stdin: Dear colleague, I am looking for the recorded Beating rate of human cardiomyocytes of the following compound: CC(C)OC(=O)[C@H](C)N[P@](=O)(OC[C@H]1O[C@@H](n2ccc(=O)[nH]c2=O)[C@](C)(F)[C@@H]1O)Oc1ccccc1
stdout: 35.0 ± 1.4 beats/minute

---

Test system: human cardiomyocytes
Method Summary: recording of human cardiomyocyte beating patterns
Type: cell-based
Setup Conditions: 50 μM, 2 h
Measure Name: Beating rate of human cardiomyocytes (beats/minute)
I only need the number, in beats/minute, no unit after it.

// solved cases for Beating rate of human cardiomyocytes follow
Molecule: CC(C)OC(=O)[C@H](C)N[P@](=O)(OC[C@H]1O[C@@H](n2ccc(=O)[nH]c2=O)[C@](C)(F)[C@@H]1O)Oc1ccccc1
Unit Text: beats/minute
Beating rate of human cardiomyocytes: 32.5

Molecule: CC(C)OC(=O)CCc1ccccc1OP(=O)(N[C@@H](C)C(=O)OC(C)C)OC[C@H]1O[C@@H](n2cnc3c(N)nc(N)nc32)[C@](C)(O)[C@@H]1O (stereo partly shown)
Unit Text: beats/minute
Beating rate of human cardiomyocytes: 21.5

Molecule: COc1nc(N)nc2c1ncn2[C@@H]1O[C@H](COP(=O)(N[C@@H](C)C(=O)OCC(C)(C)C)Oc2cccc3ccccc23)[C@@H](O)[C@@]1(C)O (stereo partly shown)
Unit Text: beats/minute
Beating rate of human cardiomyocytes: 0

stdin: Dear colleague, I am looking for the recorded Beating rate of human cardiomyocytes of the following molecule: CC(C)(CO)C(=O)SCCOP(=O)(NCc1ccccc1)OC[C@H]1O[C@@H](n2cnc3c(=O)[nH]c(N)nc32)[C@](C)(O)[C@@H]1O (mixture of isomers)
stdout: 33.0

---

Listing: Beating rate of human cardiomyocytes of selected compounds
Test system: human cardiomyocytes
Method Summary: recording of human cardiomyocyte beating patterns
Type: cell-based
Setup Conditions: 2 μM, 8 h
I only need the number, in beats/minute, no unit after it.

Compound: COc1nc(N)nc2c1ncn2[C@@H]1O[C@H](COP(=O)(N[C@@H](C)C(=O)OCC(C)(C)C)Oc2cccc3ccccc23)[C@@H](O)[C@@]1(C)O (stereo partly shown)
Beating rate of human cardiomyocytes [beats/minute]: 34.5

stdin: Dear colleague, I am looking for the recorded Beating rate of human cardiomyocytes of the following compound: CC(C)OC(=O)CCc1ccccc1OP(=O)(N[C@@H](C)C(=O)OC(C)C)OC[C@H]1O[C@@H](n2cnc3c(N)nc(N)nc32)[C@](C)(O)[C@@H]1O (stereo partly shown)
stdout: 37.0

stdin: Dear colleague, I am looking for the recorded Beating rate of human cardiomyocytes of the following compound: CC(C)OC(=O)[C@H](C)N[P@](=O)(OC[C@H]1O[C@@H](n2ccc(=O)[nH]c2=O)[C@](C)(F)[C@@H]1O)Oc1ccccc1
stdout: 38.5

stdin: Dear colleague, I am looking for the recorded Beating rate of human cardiomyocytes of the following compound: CC(C)(CO)C(=O)SCCOP(=O)(NCc1ccccc1)OC[C@H]1O[C@@H](n2cnc3c(=O)[nH]c(N)nc32)[C@](C)(O)[C@@H]1O (mixture of isomers)
stdout: 37.0

---

Test system: human cardiomyocytes
Method Summary: recording of human cardiomyocyte beating patterns
Type: cell-based
Setup Conditions: 50 μM, 24 h
Measure Name: Beating rate of human cardiomyocytes (beats/minute)
I only need the number, in beats/minute, no unit after it.

// solved cases for Beating rate of human cardiomyocytes follow
Compound: CC(C)OC(=O)[C@H](C)N[P@](=O)(OC[C@H]1O[C@@H](n2ccc(=O)[nH]c2=O)[C@](C)(F)[C@@H]1O)Oc1ccccc1
Beating rate of human cardiomyocytes / beats/minute: 29.5
//
Compound: CC(C)(CO)C(=O)SCCOP(=O)(NCc1ccccc1)OC[C@H]1O[C@@H](n2cnc3c(=O)[nH]c(N)nc32)[C@](C)(O)[C@@H]1O (mixture of isomers)
Beating rate of human cardiomyocytes / beats/minute: 34.5
//
Compound: COc1nc(N)nc2c1ncn2[C@@H]1O[C@H](COP(=O)(N[C@@H](C)C(=O)OCC(C)(C)C)Oc2cccc3ccccc23)[C@@H](O)[C@@]1(C)O (stereo partly shown)
Beating rate of human cardiomyocytes / beats/minute: 34.0

Then there is this compound:
stdin: Dear colleague, I am looking for the recorded Beating rate of human cardiomyocytes of the following compound: CC(C)OC(=O)CCc1ccccc1OP(=O)(N[C@@H](C)C(=O)OC(C)C)OC[C@H]1O[C@@H](n2cnc3c(N)nc(N)nc32)[C@](C)(O)[C@@H]1O (stereo partly shown)
stdout: 19.0

---

Method Summary: single dose escalation and seven day repeat dosing in rats
Setup Conditions: rat, in vivo
Measure Name: NOAEL at 7 day

stdin: Dear colleague, I am looking for the recorded NOAEL at 7 day of the following compound: CC(C)OC(=O)CCc1ccccc1OP(=O)(N[C@@H](C)C(=O)OC(C)C)OC[C@H]1O[C@@H](n2cnc3c(N)nc(N)nc32)[C@](C)(O)[C@@H]1O (stereo partly shown) [DAPN-PD]
stdout: < 40 mg/kg/day

---

Listing: Beating rate of human cardiomyocytes of selected compounds
System: human cardiomyocytes
Method Summary: recording of human cardiomyocyte beating patterns
Assay type: cell-based
Setup Conditions: 10 μM, 4 h
I only need the number, in beats/minute, no unit after it.

// solved cases for Beating rate of human cardiomyocytes follow
Compound: COc1nc(N)nc2c1ncn2[C@@H]1O[C@H](COP(=O)(N[C@@H](C)C(=O)OCC(C)(C)C)Oc2cccc3ccccc23)[C@@H](O)[C@@]1(C)O (stereo partly shown) [BMS-986094]
Unit Text: beats/minute
Beating rate of human cardiomyocytes: 31.0

Compound: CC(C)OC(=O)[C@H](C)N[P@](=O)(OC[C@H]1O[C@@H](n2ccc(=O)[nH]c2=O)[C@](C)(F)[C@@H]1O)Oc1ccccc1 [Sofosbuvir, sofosbuvir]
Unit Text: beats/minute
Beating rate of human cardiomyocytes: 33.0

Compound: CC(C)(CO)C(=O)SCCOP(=O)(NCc1ccccc1)OC[C@H]1O[C@@H](n2cnc3c(=O)[nH]c(N)nc32)[C@](C)(O)[C@@H]1O (mixture of isomers) [IDX-184]
Unit Text: beats/minute
Beating rate of human cardiomyocytes: 30.0

Then there is this compound:
stdin: Dear colleague, I am looking for the recorded Beating rate of human cardiomyocytes of the following compound: CC(C)OC(=O)CCc1ccccc1OP(=O)(N[C@@H](C)C(=O)OC(C)C)OC[C@H]1O[C@@H](n2cnc3c(N)nc(N)nc32)[C@](C)(O)[C@@H]1O (stereo partly shown) [DAPN-PD]
stdout: 23.5
